# Tested system: RXRa (Homo sapiens, UniProt P19793)
# Sequence (P19793 whole entry): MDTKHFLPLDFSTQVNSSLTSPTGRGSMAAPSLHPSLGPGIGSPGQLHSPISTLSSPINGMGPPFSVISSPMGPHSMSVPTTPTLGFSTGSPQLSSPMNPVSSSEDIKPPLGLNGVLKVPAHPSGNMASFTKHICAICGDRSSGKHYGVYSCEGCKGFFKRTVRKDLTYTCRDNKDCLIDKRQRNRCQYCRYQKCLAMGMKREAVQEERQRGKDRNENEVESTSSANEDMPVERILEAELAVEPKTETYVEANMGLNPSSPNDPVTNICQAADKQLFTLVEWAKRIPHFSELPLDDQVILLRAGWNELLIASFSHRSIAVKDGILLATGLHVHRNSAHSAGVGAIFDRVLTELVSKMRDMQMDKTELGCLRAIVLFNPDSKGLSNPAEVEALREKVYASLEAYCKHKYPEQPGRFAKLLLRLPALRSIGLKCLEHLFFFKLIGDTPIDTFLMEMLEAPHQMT
# Assay procedure: no ligand; PBM; 180 nM; PBS pH 7.4, 2% milk, 0.02% Triton X-100, 1 mM DTT, BSA, 0.4 mg/ml salmon testes DNA
# Test conditions: tags: His cleaved; chain copies: 2; label: surface-attached array probe
Observation type: binding signal

Write down binding signal measured for item NRC3_random_hg19_89_o1 (dsDNA) DNA 1: GCCAAGATGAATCAGAAGCATGCCATCCGAATTCCAGCGATTGACAGCGTAGAATGAAGG DNA 2: CCTTCATTCTACGCTGTCAATCGCTGGAATTCGGATGGCATGCTTCTGATTCATCTTGGC
-0 PBM z-score against 500 random probes
